Collected from the literature: pIC50 of various molecules toward Cyclin-dependent kinase 1 (Homo sapiens).
Schema: pIC50 number; meaning minus log10 of the concentration expressed in molar units.

INSERT INTO measurements (compound, property_measured, measured) VALUES
  ('CC(C)N1CCOc2c(F)cc(-c3nc(Nc4ccc5c(c4)C(=O)NCC5)ncc3F)cc21', 'pIC50', 7.16),
  ('FC(F)(F)Oc1ccc2[nH]c(-c3n[nH]c4ncc(-c5cccnc5)cc34)nc2c1', 'pIC50', 8.22),
  ('CCc1n[nH]c2c(Nc3ccc(N)c(Cl)c3)ncnc12', 'pIC50', 4.46),
  ('CN1CCN(c2ccc(Nc3cc4c(C5CCCC5)c(C#N)sc4cn3)nc2)CC1', 'pIC50', 8.04);

Give recorded pIC50 with Cyclin-dependent kinase 1 (Homo sapiens) for the following molecule: N#Cc1sc2cnc(Nc3ccc(N4CCNCC4)cc3)cc2c1C1CCCC1
7.82
